The measured values listed here are drawn from paper PMC6235537.

biological target: His6-tagged PP1α_(7–330) (UniProt P62136 7-330); assay: SPR
Sequence (P62136 7-330): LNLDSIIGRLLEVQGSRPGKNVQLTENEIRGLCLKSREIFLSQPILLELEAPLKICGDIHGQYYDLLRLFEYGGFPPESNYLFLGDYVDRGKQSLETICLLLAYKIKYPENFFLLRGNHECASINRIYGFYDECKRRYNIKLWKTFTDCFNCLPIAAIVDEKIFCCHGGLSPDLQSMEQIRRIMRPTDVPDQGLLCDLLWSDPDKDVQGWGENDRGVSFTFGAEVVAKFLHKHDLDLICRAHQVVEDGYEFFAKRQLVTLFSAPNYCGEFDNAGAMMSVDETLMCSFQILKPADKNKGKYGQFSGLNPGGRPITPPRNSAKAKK
ASSAY ENDPOINT: Kd (nM)
Kindly answer with a numeric value in nM, unit omitted.

Incoming: Answer with reported Kd of RRVSFADNFGFNLVSVKEFDTWELPSVSTTFELGKDAFQTEE [GM^64–105 peptide]
Outgoing: 114
